Attribution: ChEMBL document CHEMBL1141227

Please provide measured log10 of Ki for the entries that follow.
# SYSTEM: UniProt:Q01959
# Sequence (Q01959 whole entry): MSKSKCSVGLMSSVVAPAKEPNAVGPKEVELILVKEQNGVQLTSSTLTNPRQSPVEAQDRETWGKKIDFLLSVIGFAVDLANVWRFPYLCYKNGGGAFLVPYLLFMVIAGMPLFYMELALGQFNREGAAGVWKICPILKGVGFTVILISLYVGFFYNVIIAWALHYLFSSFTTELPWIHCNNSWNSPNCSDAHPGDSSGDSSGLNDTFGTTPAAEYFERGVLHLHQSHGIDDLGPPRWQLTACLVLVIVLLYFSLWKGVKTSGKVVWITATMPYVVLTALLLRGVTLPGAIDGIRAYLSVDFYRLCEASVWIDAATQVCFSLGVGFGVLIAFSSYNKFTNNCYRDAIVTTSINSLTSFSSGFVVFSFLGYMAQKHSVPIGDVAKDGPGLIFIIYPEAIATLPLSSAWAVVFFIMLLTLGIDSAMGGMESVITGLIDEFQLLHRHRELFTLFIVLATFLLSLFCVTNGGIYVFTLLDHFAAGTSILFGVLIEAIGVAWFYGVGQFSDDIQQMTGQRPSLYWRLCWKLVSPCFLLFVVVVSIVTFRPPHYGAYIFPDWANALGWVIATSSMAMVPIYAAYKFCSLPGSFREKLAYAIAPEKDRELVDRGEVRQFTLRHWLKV
# RUN DESCRIPTION: Displacement of [3H]dopamine from human DAT expressed in COS7 cells
# Format: cell-based, COS-7
Please be aware that the numbers have been log10-transformed from Ki in µM.

# annotated cases, reported log10 of Ki shown
MOLECULE	MEASURED NUMBER
COC(=O)[C@@H]1C2CCC(C[C@@H]1c1ccc(Cl)c(Cl)c1)N2C (stereo not given in full)	-2.64
CCN(CC)c1ccc2c(-c3ccc(S(=O)(=O)NCCCCCC(=O)NCCOC(=O)[C@@H]4C5CCC(C[C@@H]4c4ccc(Cl)c(Cl)c4)N5C)cc3S(=O)(=O)[O-])c3ccc(=[N+](CC)CC)cc-3oc2c1 (stereo not given in full)	-1.14
COC(=O)[C@@H]1C2CCC(C[C@@H]1c1ccc(Cl)c(Cl)c1)N2CCNC(=O)CCCN1CCCc2cc3c(cc21)C(C)(C)C1=CC(=[N+](C)C)C=CC1=C3 (stereo not given in full)	-0.60
CCN(CC)c1ccc2c(-c3ccc(S(=O)(=O)NC[C@H]4CC[C@H](C(=O)NCCN5C6CCC5[C@@H](C(=O)OC)[C@@H](c5ccc(Cl)c(Cl)c5)C6)CC4)cc3S(=O)(=O)[O-])c3ccc(=[N+](CC)CC)cc-3oc2c1 (stereo not given in full)	-0.36

In the following, a different molecule is considered.
Fill in the blank: the reported log10 of Ki of CCN(CC)c1ccc2c(-c3ccc(S(=O)(=O)NCCCCCC(=O)NCCN4C5CCC4[C@@H](C(=O)OC)[C@@H](c4ccc(Cl)c(Cl)c4)C5)cc3S(=O)(=O)[O-])c3ccc(=[N+](CC)CC)cc-3oc2c1 (stereo not given in full) is ____.
-1.21

###

# SYSTEM: Sodium-dependent serotonin transporter (Homo sapiens)
# Sequence (P31645 whole entry): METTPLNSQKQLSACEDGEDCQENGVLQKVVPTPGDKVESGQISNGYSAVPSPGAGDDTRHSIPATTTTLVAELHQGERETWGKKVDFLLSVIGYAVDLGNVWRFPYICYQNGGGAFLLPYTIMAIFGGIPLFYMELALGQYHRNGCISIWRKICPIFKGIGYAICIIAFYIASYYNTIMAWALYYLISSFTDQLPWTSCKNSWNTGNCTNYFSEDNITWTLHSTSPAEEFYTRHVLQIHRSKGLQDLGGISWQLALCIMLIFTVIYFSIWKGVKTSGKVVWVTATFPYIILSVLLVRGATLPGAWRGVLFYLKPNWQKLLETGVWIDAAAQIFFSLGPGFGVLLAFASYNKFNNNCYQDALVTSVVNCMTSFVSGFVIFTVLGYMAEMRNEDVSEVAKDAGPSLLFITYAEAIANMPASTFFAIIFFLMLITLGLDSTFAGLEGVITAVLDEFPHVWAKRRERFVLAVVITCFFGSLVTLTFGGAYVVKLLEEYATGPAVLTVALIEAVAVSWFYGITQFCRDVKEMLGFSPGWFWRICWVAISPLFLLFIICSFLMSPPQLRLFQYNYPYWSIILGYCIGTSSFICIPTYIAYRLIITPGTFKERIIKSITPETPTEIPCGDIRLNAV
Please provide measured pKi for the entries that follow.
Answers are plain numbers, as −log10 of the molar value.

# annotated cases, reported pKi shown
MOLECULE	pKi
CCN(CC)c1ccc2c(-c3ccc(S(=O)(=O)NCCCCCC(=O)NCCOC(=O)[C@@H]4C5CCC(C[C@@H]4c4ccc(Cl)c(Cl)c4)N5C)cc3S(=O)(=O)[O-])c3ccc(=[N+](CC)CC)cc-3oc2c1 (stereo not given in full)	5.83
CCN(CC)c1ccc2c(-c3ccc(S(=O)(=O)NCCCCCC(=O)NCCN4C5CCC4[C@@H](C(=O)OC)[C@@H](c4ccc(Cl)c(Cl)c4)C5)cc3S(=O)(=O)[O-])c3ccc(=[N+](CC)CC)cc-3oc2c1 (stereo not given in full)	6.41
CCN(CC)c1ccc2c(-c3ccc(S(=O)(=O)NC[C@H]4CC[C@H](C(=O)NCCN5C6CCC5[C@@H](C(=O)OC)[C@@H](c5ccc(Cl)c(Cl)c5)C6)CC4)cc3S(=O)(=O)[O-])c3ccc(=[N+](CC)CC)cc-3oc2c1 (stereo not given in full)	6.15

I have 2 molecules here; please give me pKi for each one.
1. COC(=O)[C@@H]1C2CCC(C[C@@H]1c1ccc(Cl)c(Cl)c1)N2CCNC(=O)CCCN1CCCc2cc3c(cc21)C(C)(C)C1=CC(=[N+](C)C)C=CC1=C3 (stereo not given in full)
2. COC(=O)[C@@H]1C2CCC(C[C@@H]1c1ccc(Cl)c(Cl)c1)N2C (stereo not given in full)

1. 6.64
2. 7.92

###

# SYSTEM: Sodium-dependent noradrenaline transporter (Homo sapiens, UniProt P23975)
# Sequence (P23975 whole entry): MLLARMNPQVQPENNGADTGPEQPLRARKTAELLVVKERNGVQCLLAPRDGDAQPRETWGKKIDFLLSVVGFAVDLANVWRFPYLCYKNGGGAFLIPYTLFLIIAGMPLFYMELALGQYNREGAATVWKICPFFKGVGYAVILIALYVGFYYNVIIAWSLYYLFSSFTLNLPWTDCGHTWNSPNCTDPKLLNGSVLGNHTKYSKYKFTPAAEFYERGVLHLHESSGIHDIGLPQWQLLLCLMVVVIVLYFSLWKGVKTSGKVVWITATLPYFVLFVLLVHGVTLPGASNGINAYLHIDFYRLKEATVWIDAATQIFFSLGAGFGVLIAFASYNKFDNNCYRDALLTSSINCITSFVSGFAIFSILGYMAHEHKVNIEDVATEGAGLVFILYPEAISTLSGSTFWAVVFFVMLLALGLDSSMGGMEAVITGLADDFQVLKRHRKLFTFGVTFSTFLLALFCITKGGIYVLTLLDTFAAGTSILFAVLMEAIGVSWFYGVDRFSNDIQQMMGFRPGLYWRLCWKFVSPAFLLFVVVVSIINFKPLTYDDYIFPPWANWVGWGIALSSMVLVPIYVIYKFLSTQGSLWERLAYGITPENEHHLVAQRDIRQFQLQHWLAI
Note to self: Ki under 200 nM means condition met, ties and anything higher get condition not met.

COMPOUND	CATEGORY
COC(=O)[C@@H]1C2CCC(C[C@@H]1c1ccc(Cl)c(Cl)c1)N2CCNC(=O)CCCN1CCCc2cc3c(cc21)C(C)(C)C1=CC(=[N+](C)C)C=CC1=C3 (stereo not given in full)	condition not met
CCN(CC)c1ccc2c(-c3ccc(S(=O)(=O)NCCCCCC(=O)NCCOC(=O)[C@@H]4C5CCC(C[C@@H]4c4ccc(Cl)c(Cl)c4)N5C)cc3S(=O)(=O)[O-])c3ccc(=[N+](CC)CC)cc-3oc2c1 (stereo not given in full)	condition met

Determine whether this compound shows Ki lower than 200 nM (ties excluded): COC(=O)[C@@H]1C2CCC(C[C@@H]1c1ccc(Cl)c(Cl)c1)N2C (stereo not given in full)
condition met

Determine whether this compound shows Ki lower than 200 nM (ties excluded): CCN(CC)c1ccc2c(-c3ccc(S(=O)(=O)NC[C@H]4CC[C@H](C(=O)NCCN5C6CCC5[C@@H](C(=O)OC)[C@@H](c5ccc(Cl)c(Cl)c5)C6)CC4)cc3S(=O)(=O)[O-])c3ccc(=[N+](CC)CC)cc-3oc2c1 (stereo not given in full)
condition not met
